Reference source for all entries: patent US20210047278A1

tested on: FBW7^ARG (RLFBW7) alone (Homo sapiens, UniProt Q969H0, R505L)
Construct: GST (TEV site and flexible linker) (N, cleaved yes); made in house; host or cells: SF9 insect cells (baculovirus)
Sequence (Q969H0 64-707 R505L): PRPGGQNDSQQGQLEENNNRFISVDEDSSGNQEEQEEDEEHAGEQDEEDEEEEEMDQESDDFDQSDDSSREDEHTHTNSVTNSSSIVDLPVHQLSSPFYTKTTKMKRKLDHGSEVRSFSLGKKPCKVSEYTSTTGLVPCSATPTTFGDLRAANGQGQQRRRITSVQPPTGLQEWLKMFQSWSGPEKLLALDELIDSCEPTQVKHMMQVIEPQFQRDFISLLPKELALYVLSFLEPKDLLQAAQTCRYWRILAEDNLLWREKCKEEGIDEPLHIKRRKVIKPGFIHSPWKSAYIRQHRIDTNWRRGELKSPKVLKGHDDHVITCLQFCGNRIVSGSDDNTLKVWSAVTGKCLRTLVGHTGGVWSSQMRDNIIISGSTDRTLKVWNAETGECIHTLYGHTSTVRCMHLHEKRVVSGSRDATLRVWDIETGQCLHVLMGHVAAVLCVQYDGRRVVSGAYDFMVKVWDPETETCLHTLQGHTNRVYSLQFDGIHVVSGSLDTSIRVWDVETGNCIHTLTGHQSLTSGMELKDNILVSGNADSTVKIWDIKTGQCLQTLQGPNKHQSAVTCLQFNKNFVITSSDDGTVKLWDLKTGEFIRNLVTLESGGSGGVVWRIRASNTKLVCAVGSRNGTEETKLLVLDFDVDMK
Sequence (P63208 2-163 partner): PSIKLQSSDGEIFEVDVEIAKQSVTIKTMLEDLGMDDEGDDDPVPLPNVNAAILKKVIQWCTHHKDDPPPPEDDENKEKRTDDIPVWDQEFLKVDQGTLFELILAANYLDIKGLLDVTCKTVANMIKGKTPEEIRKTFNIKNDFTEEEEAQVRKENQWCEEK
assay: Counterscreen 1 ALPHAscreen with FBW7^ARG alone (CSRUN1/DCSRUN1)
Format: binding
assay context: dose-response counterscreen, read-out: RLFBW7 ACT DCSRUN1 Averaged Max % Response
reported metric: Emax (%)

Please review the following examples before continuing.
| compound | tested on | Emax / % |
| --- | --- | --- |
| CCCCCCCC(=O)Nc1ccc(C(=O)Nc2ccc(O)c(C(=O)O)c2)cc1 | FBW7^ARG (RLFBW7) alone (Homo sapiens, UniProt Q969H0, R505L) | 1.89 |
| Cc1cccc(N2CCN(C(=O)CCc3nc(C4=CCN(C)CC4)no3)CC2C)c1 (stereo not drawn) | FBW7^ARG (RLFBW7) alone (Homo sapiens, UniProt Q969H0, R505L) | -0.213 |
| CC1=C(C(=O)OC2CCCCC2)C(c2ccc(F)cc2)C2=C(CC(c3ccccc3)CC2=O)N1 (stereo not drawn) | FBW7^ARG (RLFBW7) alone (Homo sapiens, UniProt Q969H0, R505L) | 3.33 |
| O=c1c2cnn(-c3ccccc3)c2nnn1Cc1cccnc1 | FBW7^ARG (RLFBW7) alone (Homo sapiens, UniProt Q969H0, R505L) | 2.7 |
| Cc1nc(C(C)NC(=O)c2cc(COc3ccc(F)cc3F)on2)cs1 (stereo not drawn) | FBW7^ARG (RLFBW7) alone (Homo sapiens, UniProt Q969H0, R505L) | 1.75 |
| CC1=C(C(=O)OCCc2ccccc2)C(c2ccc(Cl)cc2Cl)C2=C(CC(C)(C)CC2=O)N1 (stereo not drawn) | FBW7^ARG (RLFBW7) alone (Homo sapiens, UniProt Q969H0, R505L) | 3.8 |
| O=C(Nc1ccc2oc(-c3ccc4ccccc4c3)nc2c1)c1cccc(Cl)c1Cl | FBW7^ARG (RLFBW7) alone (Homo sapiens, UniProt Q969H0, R505L) | -0.031 |
| Cc1cccc(CC(=O)Nc2cnn(-c3cccc(C(=O)N4CCNC(=O)CC4)c3)c2)c1 | FBW7^ARG (RLFBW7) alone (Homo sapiens, UniProt Q969H0, R505L) | -0.141 |
| CCSc1nnc(C2CCN(CC(=O)Nc3cccc4ccccc34)CC2)n1C | FBW7^ARG (RLFBW7) alone (Homo sapiens, UniProt Q969H0, R505L) | 0.67 |
| CCCOC(=O)C1=C(C)N(CC)C(=O)NC1c1ccccc1[N+](=O)[O-] (stereo not drawn) | FBW7^ARG (RLFBW7) alone (Homo sapiens, UniProt Q969H0, R505L) | 0.3 |

1. CCN(CC)c1ccc2c(c1)OC(N)=C(C#N)C2c1ccccc1 (stereo not drawn)
2. Cc1cc(OCC(=O)Nc2ccc3oc(-c4ccccc4Br)nc3c2)cc(C)c1Cl
3. COc1cccc(C=O)c1OC(=O)c1cccc(Cl)c1
4. COc1cc2c(cc1OC)C(COc1ccc([N+](=O)[O-])cc1)N(C(=O)c1ccc3c(c1)OCO3)CC2 (stereo not drawn)
Req: Sort by Emax, descending. A ranking is expressed here by listing the labels in the requested order.
Resp: 1, 4, 3, 2
